Listing of entries alongside the reported melting point.
Structures can show the parent of a compound that is named as a salt.

The cases that follow already have their melting point on record.
Using the record for CCc1nc(N)nc(N)c1OCc1csc(-c2ccccc2)n1 (as salt: hydrochloride) [Compound 60] , state its measured melting point. 220 to 222 °C

Using the record for CCc1nc(N)nc(N)c1OCCCc1cn(Cc2ccc(C(=O)O)cc2)nn1 (as salt: hydrochloride) [Compound 32] , state its measured melting point. 211 to 212.5 °C

Using the record for CCc1nc(N)nc(N)c1OCc1cc(-c2ccc(C(=O)O)cc2)no1 (as salt: hydrochloride) [Compound 44] , state its measured melting point. 242 to 244 °C

Using the record for CCc1nc(N)nc(N)c1OCCCc1cc(-c2cccc(C(F)(F)F)c2)no1 (as salt: hydrochloride) [Compound 46] , state its measured melting point. 216.5 to 218 °C

Using the record for CCc1nc(N)nc(N)c1OCc1cn(-c2ccc(C(=O)OC)cc2)nn1 (as salt: hydrochloride) [Compound 18] , state its measured melting point. 197.5 to 199 °C

Using the record for CCc1nc(N)nc(N)c1OCCc1cn(-c2ccc(C(=O)OC)cc2)nn1 (as salt: hydrochloride) [Compound 21] , state its measured melting point. 190 to 192 °C

// next entry
Using the record for CCc1nc(N)nc(N)c1OCc1cn(Cc2ccc(O)cc2)nn1 (as salt: hydrochloride) [Compound 28] , state its measured melting point. 224.2 to 225.2 °C

* * *

target desc: quadruple mutant N51I + C59R + S108N + I164L (QM) pfDHFR (Plasmodium falciparum, UniProt P13922, I164L/N51I)
Sequence (P13922 whole entry N51I/I164L): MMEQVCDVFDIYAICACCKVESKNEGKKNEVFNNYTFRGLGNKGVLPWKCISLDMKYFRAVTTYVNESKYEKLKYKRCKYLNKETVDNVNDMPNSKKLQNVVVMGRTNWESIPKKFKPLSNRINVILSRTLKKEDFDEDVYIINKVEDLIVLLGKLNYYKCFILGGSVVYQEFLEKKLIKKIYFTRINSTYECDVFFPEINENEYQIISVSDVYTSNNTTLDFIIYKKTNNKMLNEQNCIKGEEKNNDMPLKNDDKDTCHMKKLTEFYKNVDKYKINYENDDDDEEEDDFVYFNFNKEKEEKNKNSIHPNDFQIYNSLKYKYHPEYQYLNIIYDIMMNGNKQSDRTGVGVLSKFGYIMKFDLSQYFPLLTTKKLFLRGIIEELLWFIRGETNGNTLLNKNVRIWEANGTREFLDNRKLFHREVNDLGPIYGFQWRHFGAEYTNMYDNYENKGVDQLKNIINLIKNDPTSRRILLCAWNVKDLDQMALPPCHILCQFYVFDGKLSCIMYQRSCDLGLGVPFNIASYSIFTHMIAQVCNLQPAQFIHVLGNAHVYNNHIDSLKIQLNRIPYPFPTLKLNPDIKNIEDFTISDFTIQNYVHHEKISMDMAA
protocol text: Inhibition of quadruple mutant pfDHFR (Ki)
Label yes (1) when Ki < 0.03 µM; otherwise no (0).

Use the examples below as a reference point.
Determine if "CCc1nc(N)nc(N)c1OCc1cc(-c2ccc(Cl)cc2)no1" shows Ki strictly lower than 0.03 µM. no (0)

Determine if "CCc1nc(N)nc(N)c1OCc1cn(Cc2ccc(C(=O)O)cc2)nn1" shows Ki strictly lower than 0.03 µM. no (0)

Determine if "CCc1nc(N)nc(N)c1OCc1cn(-c2cccc(C(=O)OC)c2)nn1" shows Ki strictly lower than 0.03 µM. no (0)

Determine if "CCc1nc(N)nc(N)c1OCc1csc(-c2cccc(C(=O)OC)c2)n1" shows Ki strictly lower than 0.03 µM. no (0)

Determine if "CCc1nc(N)nc(N)c1-c1cn(Cc2ccc(OC(=O)N(c3ccccc3)c3ccccc3)cc2)nn1" shows Ki strictly lower than 0.03 µM. yes (1)

Further cases:
Determine if "CCc1nc(N)nc(N)c1OCc1csc(-c2ccc(C(=O)OC)cc2)n1" shows Ki strictly lower than 0.03 µM. no (0)

Determine if "CCc1nc(N)nc(N)c1OCc1cc(-c2ccc(C(=O)O)cc2)no1" shows Ki strictly lower than 0.03 µM. no (0)

Determine if "CCc1nc(N)nc(N)c1OCc1csc(-c2cccc([N+](=O)[O-])c2)n1" shows Ki strictly lower than 0.03 µM. no (0)

Determine if "CCc1nc(N)nc(N)c1OCc1csc(-c2ccc(Br)cc2)n1" shows Ki strictly lower than 0.03 µM. yes (1)

* * *

protocol text: in vitro
particulars: African green monkey
recorded metric: IC50

Using the record for CCc1nc(N)nc(N)c1OCc1cn(-c2cccc(C(=O)O)c2)nn1.Cl [Compound 16, Hydrochloride] , state its measured IC50. > 25 µM

Using the record for CCc1nc(N)nc(N)c1OCc1cn(-c2ccc(C(=O)O)cc2)nn1 [Compound 19] , state its measured IC50. > 10 µM

Using the record for CCc1nc(N)nc(N)c1OCc1csc(-c2cccc(C)c2)n1 [Compound 61] , state its measured IC50. 31.3 µM

Using the record for CCc1nc(N)nc(N)c1OCc1coc(-c2cccc(OCC(=O)O)c2)n1 [Compound 54] , state its measured IC50. > 50 µM

Using the record for CCc1nc(N)nc(N)c1OCc1cn(Cc2ccc(O)cc2)nn1 [Compound 28] , state its measured IC50. > 1 µM
